B1: TPR t1 (parent)
chain: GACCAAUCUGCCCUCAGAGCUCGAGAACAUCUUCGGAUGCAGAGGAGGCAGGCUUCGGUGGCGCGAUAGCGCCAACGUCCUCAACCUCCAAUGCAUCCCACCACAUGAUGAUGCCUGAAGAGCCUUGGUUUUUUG

variants of: B1; assay: polymerase ribozyme fitness, log enrichment relative to wild type (log ratio); higher = more active; in vitro selection for triplet polymerase activity
Entries and their polymerase ribozyme fitness (log ratio)
assay metric: polymerase ribozyme fitness (log ratio)

In [3]: df
Out[3]:
             mutation_code                             assay_metric  measured_number
0      U7A C8U G107C C124U  polymerase ribozyme fitness (log ratio)            -4.43
1           G52U C64U C82G  polymerase ribozyme fitness (log ratio)            -2.19
2           A37G C56G U96C  polymerase ribozyme fitness (log ratio)           -0.381
3     C73U C86A C97U C102U  polymerase ribozyme fitness (log ratio)            -4.11
4          A43U G58U G113A  polymerase ribozyme fitness (log ratio)            -2.63
5                C20U G42C  polymerase ribozyme fitness (log ratio)            -2.14
6               G47U C115U  polymerase ribozyme fitness (log ratio)             -2.5
7        C104U U112G U116C  polymerase ribozyme fitness (log ratio)            -1.98
8  A105G U106A G120U U133C  polymerase ribozyme fitness (log ratio)            0.414

Origin of the recorded values: the RNAGym collection of RNA variant scans (doi:10.1073/pnas.2313332121)
